pIC50: −log10 of the molar value.
// endpoint pIC50 / system MMP-9 (human leukocyte gelatinase) (Homo sapiens (Human), UniProt P14780)

- chemical-structure: "COc1cc(/C=C/C(=O)CC(=O)/C=C/c2ccc(N(C)C)cc2)ccc1O"
  pIC50: "4.77 to 5.22"

# context switch: different molecule, same pIC50
Entry under test: COC(=O)C(C(=O)/C=C/c1ccc(O)c(OC)c1)C(=O)/C=C/c1ccc(O)c(OC)c1 . Its pIC50 was 4.77 to 5.22
